- target: T1, E. coli prolyl-tRNA synthetase (ProRS) (Escherichia coli), P16659
- T1 chain: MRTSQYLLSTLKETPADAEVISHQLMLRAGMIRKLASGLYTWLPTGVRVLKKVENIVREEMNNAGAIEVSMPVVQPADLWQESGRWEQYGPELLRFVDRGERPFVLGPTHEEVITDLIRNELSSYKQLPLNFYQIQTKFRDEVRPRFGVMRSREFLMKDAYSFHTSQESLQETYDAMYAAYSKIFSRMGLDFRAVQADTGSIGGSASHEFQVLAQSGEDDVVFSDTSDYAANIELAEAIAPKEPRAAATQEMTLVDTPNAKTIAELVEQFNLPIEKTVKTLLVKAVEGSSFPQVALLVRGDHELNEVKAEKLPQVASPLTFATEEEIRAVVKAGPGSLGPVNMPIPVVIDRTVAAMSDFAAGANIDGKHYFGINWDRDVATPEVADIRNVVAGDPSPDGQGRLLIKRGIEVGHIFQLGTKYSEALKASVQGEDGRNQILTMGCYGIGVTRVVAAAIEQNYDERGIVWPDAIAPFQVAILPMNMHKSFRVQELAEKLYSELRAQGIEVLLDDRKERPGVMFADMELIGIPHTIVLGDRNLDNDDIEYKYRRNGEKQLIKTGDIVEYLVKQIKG
- procedure_summary: inhibition of tRNA charging activity, synthetic peptide
outcome_measure: Ki (nM)
Express your answer in nM, writing the number without its unit.

Input line: Returns the measured Ki for the input binder. Input: SREWHFWRDYNPTSR (modifications not checked) [Pro-3 peptide (…)]
Output line: 300
